Attribution: ChEMBL document CHEMBL5550130

ASSAY_EXPLANATION: Antiproliferative activity against human HEK293T cells assessed as reduction in cell viability incubated for 72 hrs by MTT assay
Type: toxicity, cell-based, HEK-293T
IC50 at 72 h under 20 µM gets criterion met, anything at or over 20 µM gets criterion not met.

Examples from the recorded data:
>>> label_value("COc1ccc2c(c1)[nH]c1c(C)nccc12 [HARMINE]")
"criterion not met"
>>> label_value("COc1cc(NC(C)CCCNC(=O)NCCOc2ccc3c(c2)[nH]c2c(C)nccc23)c2ncccc2c1 (centres undefined)")
"criterion met"
>>> label_value("COc1cc(NC(C)CCCNC(=O)NCc2cc3c([nH]c4ccccc43)c(C)n2)c2ncccc2c1 (centres undefined)")
"criterion not met"
>>> label_value("COc1cc(NC(C)CCCn2cc(Cn3c4cc(OC)ccc4c4ccnc(C)c43)nn2)c2ncccc2c1 (centres undefined)")
"criterion not met"
>>> label_value("COc1cc(NC(C)CCCn2cc(COc3ccc4c(c3)[nH]c3c(C)nccc34)nn2)c2ncccc2c1 (centres undefined)")
"criterion met"
>>> label_value("COc1cc(NC(C)CCCNC(=O)NCCn2c3cc(OC)ccc3c3ccnc(C)c32)c2ncccc2c1 (centres undefined)")
"criterion met"
>>> label_value("COc1cc(NC(C)CCCN)c2ncccc2c1 (centres undefined) [PRIMAQUINE]")
"criterion not met"
>>> label_value("COc1cc(NC(C)CCCNC(=O)NCc2nccc3c2[nH]c2ccccc23)c2ncccc2c1 (centres undefined)")
"criterion met"

stdin: Would you kindly verify if IC50 at 72 h of COc1cc(NC(C)CCCn2cc(-c3nccc4c3[nH]c3ccccc34)nn2)c2ncccc2c1 (centres undefined) is strictly less than 20 µM?
stdout: criterion not met

stdin: Ok, now COc1cc(NC(C)CCCn2cc(COc3ccc4[nH]c5c(C)nccc5c4c3)nn2)c2ncccc2c1-c1c(OC)cc(NC(C)CCCn2cc(COc3ccc4[nH]c5c(C)nccc5c4c3)nn2)c2ncccc12 (centres undefined)
stdout: criterion not met

stdin: Ok, now COc1cc(NC(C)CCCn2cc(COc3ccc4[nH]c5c(C)nccc5c4c3)nn2)c2ncccc2c1 (centres undefined)
stdout: criterion not met

stdin: Ok, now COc1cc(NC(C)CCCNC(=O)NCCOc2ccc3[nH]c4c(C)nccc4c3c2)c2ncccc2c1 (centres undefined)
stdout: criterion met

stdin: Ok, now COc1cc(NC(C)CCCn2cc(-c3cc4c([nH]c5ccccc54)c(C)n3)nn2)c2ncccc2c1 (centres undefined)
stdout: criterion not met

stdin: Ok, now O=c1[nH]cc(F)c(=O)[nH]1 [FLUOROURACIL]
stdout: criterion met
